System: Protein synthesis of S. aureus RN450
Experiment: microbe, parasite or virus in culture
Type: cell-based
Details: Staphylococcus aureus, read-out: Protein synthesis IC50
# IC50 annotations

- Compound: "C[C@H]1c2cccc(O)c2C(=O)C2=C(O)[C@]3(O)C(=O)C(C(N)=O)=C(O)[C@@H](N(C)C)[C@@H]3[C@@H](O)[C@@H]21 [Doxycycline, reference compound]"
  IC50: "< 0.03 µg/mL"
- Compound: "CN(C)c1ccc(O)c2c1C[C@H]1C[C@H]3[C@H](N(C)C)C(O)=C(C(N)=O)C(=O)[C@@]3(O)C(O)=C1C2=O [Minocycline, reference compound]"
  IC50: "< 0.03 µg/mL"
- Compound: "Cc1c2c(c(O)c3c(O)cccc13)C(=O)[C@]1(O)C(=O)C(C(N)=O)=C(O)[C@@H](N(C)C)[C@@H]1C2 [Anhydro-tetracycline, anhydrotetracycline, reference compound]"
  IC50: "< 0.03 µg/mL"

----------
System: B. cereus 95/3032
Experiment: microbe, parasite or virus in culture
Assay type: cell-based
Details: Bacillus cereus
# MIC annotations

- Compound: "CN(C)c1ccc(O)c2c1C[C@H]1C[C@H]3[C@H](N(C)C)C(O)=C(C(N)=O)C(=O)[C@@]3(O)C(O)=C1C2=O [Minocycline, reference compound]"
  Assay Target: "B. cereus 95/3032"
  MIC: "≤ 0.06 µg/mL"
- Compound: "CN(C)C1C(O)=C(C(N)=O)C(=O)C2(O)C(O)=C3C(=O)c4c(O)cccc4C(C)(O)C3CC12 (stereo not shown) [Tetracycline, reference compound]"
  Assay Target: "B. cereus 95/3032"
  MIC: "≤ 0.06 µg/mL"
- Compound: "C[C@H]1c2cccc(O)c2C(=O)C2=C(O)[C@]3(O)C(=O)C(C(N)=O)=C(O)[C@@H](N(C)C)[C@@H]3[C@@H](O)[C@@H]21 [Doxycycline, reference compound]"
  Assay Target: "B. cereus 95/3032"
  MIC: "≤ 0.06 µg/mL"
- Compound: "CO/N=C(\\C(=O)N[C@@H]1C(=O)N2C(C(=O)O)=C(COC(C)=O)CS[C@H]12)c1csc(N)n1"
  Assay Target: "B. cereus 95/3032"
  MIC: "> 64 µg/mL"

Source listed as patent US8440646B1.
